# System: FM-MEL-6
# TEST_DETAILS: drug sensitivity score (DSS) (DSS (unitless, 0-50 scale)); higher = more sensitive (stronger viability inhibition); extreme values may be limits of the assay
# CONDITIONS: 72 h; culture: 2D
MEASUREMENT_TYPE: drug sensitivity score

• Cc1nn(C)c(COc2ccc(N3CCN(S(=O)(=O)N(C)C)CC3)cc2)c1-c1cccc2c(CCCOc3cccc4ccccc34)c(C(=O)O)n(CCN3CCOCC3)c12 = 7.8
• CC[C@H](C)C(=O)O[C@H]1C[C@@H](C)C=C2C=C[C@H](C)[C@H](CC[C@@H]3C[C@@H](O)CC(=O)O3)[C@H]21 = 0
• Cc1c(-c2c(-c3ccc(F)o3)sc3ncnc(O[C@H](Cc4ccccc4OCc4ccnn4CC(F)(F)F)C(=O)O)c23)ccc(OCCN2CCN(C)CC2)c1Cl = 1.9
• CC[C@H](NC(=O)[C@H](C)NC)C(=O)N1C[C@@H](O)C[C@H]1Cc1c(-c2[nH]c3cc(F)ccc3c2C[C@@H]2C[C@H](O)CN2C(=O)[C@H](CC)NC(=O)[C@H](C)NC)[nH]c2cc(F)ccc12 = 3
• CO[C@H]1C[C@@H]2CC[C@@H](C)[C@@](O)(O2)C(=O)C(=O)N2CCCC[C@H]2C(=O)O[C@H]([C@H](C)C[C@@H]2CC[C@@H](O)[C@H](OC)C2)CC(=O)[C@H](C)/C=C(\C)[C@@H](O)[C@@H](OC)C(=O)[C@H](C)C[C@H](C)/C=C/C=C/C=C/1C = 1.2
• COc1cccc2c1C(=O)c1c(O)c3c(c(O)c1C2=O)C[C@@](O)(C(=O)CO)C[C@@H]3O[C@H]1C[C@H](N)[C@@H](O)[C@H](C)O1 [Epirubicin] = 8.6
• Cc1cc(Nc2cc(N3CCN(C)CC3)nc(Sc3ccc(NC(=O)C4CC4)cc3)n2)n[nH]1 = 2.7
• CC(=O)O[C@]1(C(C)=O)CC[C@H]2[C@@H]3C=C(C)C4=CC(=O)CC[C@]4(C)[C@H]3CC[C@@]21C [Megestrol acetate] = 0
• C[C@@]1(C(=O)Nc2ccc(F)nc2)CCCN1c1nc(Nc2cc(C3CC3)n[nH]2)c2cccn2n1 = 6.1
• COc1cc2c(NC3CCN(C(C)C)CC3)nc(C3CCCCC3)nc2cc1OCCCN1CCCC1 = 2.8
• COc1cc(Br)c(Nc2nc(-c3c(C)nc4ncccn34)cs2)c(Br)c1 = 5
• CN(C)Cc1c(C(=O)NCCOc2ccc(C(=O)NO)cc2)oc2ccccc12 = 14.7
• O=C(O)CCCCC(CCSCc1ccccc1)SCc1ccccc1 (stereo not drawn) = 0

====

# System: FM-MEL-6
# TEST_DETAILS: drug sensitivity score (DSS) (DSS (unitless, 0-50 scale)); higher = more sensitive (stronger viability inhibition); extreme values may be limits of the assay
# CONDITIONS: 72 h; culture: 2D
Listed next: entries and their corresponding drug sensitivity score.
MEASUREMENT_TYPE: drug sensitivity score

- Nc1nc(Nc2ccc3c(c2)CC[C@@H](N2CCCC2)CC3)nn1-c1cc2c(nn1)-c1ccccc1CCC2: 5.4
- CC(C)(O)CC(=O)NCCn1ccc2ncnc(Nc3ccc(Oc4cccc(C(F)(F)F)c4)c(Cl)c3)c21: 0
- C[C@H]1CNCCCN1S(=O)(=O)c1cccc2cncc(F)c12: 0
- C[C@@H]1C[C@H]2[C@@H]3CCC4=CC(=O)C=C[C@]4(C)[C@@]3(F)[C@@H](O)C[C@]2(C)[C@@]1(O)C(=O)CO: 0
- CCCCCCCCCCCCCCCCCCOP(=O)([O-])OC1CC[N+](C)(C)CC1: 0
- COc1ccc(S(=O)(=O)Nc2cccnc2Nc2ccc(O)cc2)cc1: 9.2
- C[C@@H]1COC(Nc2ccc3ncnc(Nc4ccc(OCc5nccs5)c(Cl)c4)c3c2)=N1: 0
- CCn1c(=O)c(-c2ccc(Cl)cc2Cl)cc2cnc(Nc3ccc(N4CCNCC4)c(F)c3)nc21: 1.9
- Cc1cc(C(C)Nc2ccccc2)c2nc(N3CCOCC3)cc(=O)n2c1 (stereo unspecified): 0.9
- Cn1nccc1Nc1nccc(-c2ccn([C@H](CO)c3ccc(Cl)c(F)c3)c(=O)c2)n1: 5.6
- Cc1cc(-c2nc(-c3ccc(OC(F)(F)F)cc3)no2)nn1Cc1ccnc(N2CCN(C3CC3)CC2)c1: 0
- CC(O)c1cc(C(=O)N[C@@H](C)Cn2ccc(-c3ccc(C#N)c(Cl)c3)n2)n[nH]1 (stereo partly specified): 1.1
- CN1CCN(c2ccc(C(=O)Nc3n[nH]c4ccc(Cc5cc(F)cc(F)c5)cc34)c(NC3CCOCC3)c2)CC1: 0
- CNC(=O)CN1CCC(Oc2cc3c(Nc4cccc(Cl)c4F)ncnc3cc2OC)CC1: 0
- CCCCOc1nc(N)c2c(n1)N(Cc1cccc(CN3CCCC3)c1)CC(=O)N2: 0.8
- CNC(=O)c1ccc(N2C(=S)N(c3cnc(C#N)c(C(F)(F)F)c3)C(=O)C23CCC3)cc1F [Apalutamide]: 0

====

# Test system: Bowes
# TEST_DETAILS: drug sensitivity score (DSS) (DSS (unitless, 0-50 scale)); higher = more sensitive (stronger viability inhibition); extreme values may be limits of the assay
# CONDITIONS: 72 h; culture: 2D
MEASUREMENT_TYPE: drug sensitivity score

- N[C@@H]1CCCN(c2c(/C=C3\SC(=O)NC3=O)cccc2-c2ccccc2)C1: 0
- Nc1cc(F)ccc1NC(=O)c1ccc(CNC(=O)/C=C/c2cccnc2)cc1: 1.9
- O=C(CCCCCCNC(=O)c1cnc(N(c2ccccc2)c2ccccc2)nc1)NO: 2
- Cc1sc2c(c1C)C(c1ccc(Cl)cc1)=N[C@@H](CC(=O)Nc1ccc(O)cc1)c1nnc(C)n1-2: 4.5
- Cc1nc(NC(=O)N2CCC[C@H]2C(N)=O)sc1-c1ccnc(C(C)(C)C(F)(F)F)c1: 0.3
- O=C(O)CC[C@H]1CC[C@@](c2cc(F)ccc2F)(S(=O)(=O)c2ccc(Cl)cc2)CC1: 0
- Nc1ncn([C@@H]2O[C@H](CO)[C@@H](O)[C@H]2O)c(=O)n1: 2.6
- Cc1c(F)cc(C(=O)NC2CC2)cc1-c1ccc(C(=O)NCC(C)(C)C)cn1: 2.8
- CNC(=O)c1ccccc1Nc1nc(Nc2ccc3c(c2OC)CCC[C@H](N2CCN(CCO)CC2)C3)ncc1Cl: 8.2
- CC(C)[C@@H](CS(=O)(=O)C(C)C)N1C(=O)[C@@](C)(CC(=O)O)C[C@H](c2cccc(Cl)c2)[C@H]1c1ccc(Cl)cc1: 0
- COc1cc2ncnc(Nc3ccc(F)c(Cl)c3)c2cc1NC(=O)/C=C/CN1CCCCC1: 4.1
- CO[C@H]1C[C@@H]2CC[C@@H](C)[C@@](O)(O2)C(=O)C(=O)N2CCCC[C@H]2C(=O)O[C@H]([C@H](C)C[C@@H]2CC[C@@H](OP(C)(C)=O)[C@H](OC)C2)CC(=O)[C@H](C)/C=C(\C)[C@@H](O)[C@@H](OC)C(=O)[C@H](C)C[C@H](C)/C=C/C=C/C=C/1C: 0
- CCN(CC)CCOc1ccc(C(=C(Cl)c2ccccc2)c2ccccc2)cc1: 5.8
- COC(=O)c1ccc([C@H]2c3[nH]c4ccccc4c3C[C@H](C(=O)OC)N2C(=O)CCl)cc1: 0
- CNC(=O)c1ccc(N2C(=S)N(c3cnc(C#N)c(C(F)(F)F)c3)C(=O)C23CCC3)cc1F [Apalutamide]: 0

====

# Test system: Bowes
# TEST_DETAILS: drug sensitivity score (DSS) (DSS (unitless, 0-50 scale)); higher = more sensitive (stronger viability inhibition); extreme values may be limits of the assay
# CONDITIONS: 72 h; culture: 2D
Each entry belongs to exactly one class, chosen by where its drug sensitivity score falls: low band = under 0.2, middle band = from 0.2 up to 10, high band = 10 and over

• CC#CC(=O)N1CCC[C@H]1c1nc(-c2ccc(C(=O)Nc3ccccn3)cc2)c2c(N)nccn12 = low band
• COc1ccc(C[C@H](NC(=O)[C@H](C)NC(=O)CN2CCOCC2)C(=O)N[C@@H](Cc2ccccc2)C(=O)C2(C)CO2)cc1 (stereo in doubt) = high band
• CN(C)C1CCN(C(=O)c2ccc(NC(=O)Nc3ccc(-c4nc(N5CCOCC5)nc(N5CCOCC5)n4)cc3)cc2)CC1 = high band
• CC(C)(C)NC(=O)[C@H]1CC[C@H]2[C@@H]3CC[C@H]4NC(=O)C=C[C@]4(C)[C@H]3CC[C@]12C [Finasteride] = low band
• CCN(CC)CCCC(C)Nc1c2ccc(Cl)cc2nc2ccc(OC)cc12 (stereo not given) = high band
• CC1(C)CNc2cc(NC(=O)c3cccnc3NCc3ccncc3)ccc21 = low band
• CC(=O)[C@]1(O)Cc2c(O)c3c(c(O)c2[C@@H](O[C@H]2C[C@H](N)[C@H](O)[C@H](C)O2)C1)C(=O)c1ccccc1C3=O = middle band
• O=C(Nc1nc2cccc(-c3ccc(CN4CCS(=O)(=O)CC4)cc3)n2n1)C1CC1 = middle band
• CC(C)(C)c1cc(NC(=O)Nc2ccc(-c3cn4c(n3)sc3cc(OCCN5CCOCC5)ccc34)cc2)no1 = middle band
• CNC(=O)[C@@H](NC(=O)[C@H](CC(C)C)[C@H](O)C(=O)NO)C(C)(C)C = low band
• CO[C@H]1C(=O)[C@]2(C)[C@@H](OC)C[C@H]3OC[C@@]3(OC(C)=O)[C@H]2[C@H](OC(=O)c2ccccc2)[C@]2(O)C[C@H](OC(=O)[C@H](O)[C@@H](NC(=O)OC(C)(C)C)c3ccccc3)C(C)=C1C2(C)C = high band
• CO[C@@H](C(=O)N1Cc2[nH]nc(NC(=O)c3ccc(N4CCN(C)CC4)cc3)c2C1)c1ccccc1 = high band
• Cn1cc(-c2cnn3c(N)c(Br)c([C@@H]4CCCNC4)nc23)cn1 = middle band
• C[C@@H]1COCCN1c1cc(C2([S@](C)(=N)=O)CC2)nc(-c2cc[nH]c3nccc2-3)n1 = high band
• CCOc1ccn(-c2ccc(F)cc2)c(=O)c1C(=O)Nc1ccc(Oc2ccnc(N)c2Cl)c(F)c1 = low band
• C1=N/C2=N/c3ccc(OCCN4CCCC4)c(c3)COC/C=C/COCc3cccc(c3)C(=C1)N2 = high band
• O=C(NC1CCNCC1)c1n[nH]cc1NC(=O)c1c(Cl)cccc1Cl = high band
• CC/C(=C(\c1ccc(O)cc1)c1ccc(OCCN(C)C)cc1)c1ccccc1 [4-hydroxytamoxifen] = low band
• CC[C@@H]1CN(C(=O)NCC(F)(F)F)C[C@@H]1c1cnc2cnc3[nH]ccc3n12 = low band
• C[C@@H]1CN(C(=O)c2ccc(NC(=O)c3cc(O[C@H](C)c4c(Cl)ccc(F)c4Cl)c(N)nn3)cc2)C[C@H](C)N1 = middle band
• CON(C)C(=O)N1N=C(c2cc(F)ccc2F)S[C@@]1(CCCN)c1ccccc1 = high band
• CCn1cc(-c2ccnc3[nH]c(-c4cccc(CN(C)C)c4)cc23)c(-c2ccc(NC(=O)N(C)C)cc2)n1 = middle band
• Nc1nc(NC2CC2)cc(-c2cccc(Cl)c2Cl)n1 = low band
• COc1cc2c(Oc3ccc(NC(=O)C4(C(=O)Nc5ccc(F)cc5)CC4)cc3F)ccnc2cc1OCCCN1CCOCC1 = middle band
• CCNC(=O)C[C@@H]1N=C(c2ccc(Cl)cc2)c2cc(OC)ccc2-n2c(C)nnc21 = middle band
• CS(=O)(=O)CCNCc1ccc(-c2ccc3ncnc(Nc4ccc(OCc5cccc(F)c5)c(Cl)c4)c3c2)o1 = middle band
• COc1ccc(Cn2ccc3ccc(C(=O)NO)cc32)cc1 = low band
• CC[C@H](C)C(=O)O[C@H]1C[C@@H](C)C=C2C=C[C@H](C)[C@H](CC[C@@H]3C[C@@H](O)CC(=O)O3)[C@H]21 = middle band
